Overview of reported Emax at 1 µM across a group of molecules:
- TARGET_OR_TEST_SYSTEM: TRPV1 (Rattus norvegicus)
- Construct: using cultured rat dorsal root ganglion cells which express TRPV1 abundantly; endogenous in cells; host or cells: primary culture of dorsal root ganglion cells from 7 day old Wistar rat
- Sequence (O35433 whole entry): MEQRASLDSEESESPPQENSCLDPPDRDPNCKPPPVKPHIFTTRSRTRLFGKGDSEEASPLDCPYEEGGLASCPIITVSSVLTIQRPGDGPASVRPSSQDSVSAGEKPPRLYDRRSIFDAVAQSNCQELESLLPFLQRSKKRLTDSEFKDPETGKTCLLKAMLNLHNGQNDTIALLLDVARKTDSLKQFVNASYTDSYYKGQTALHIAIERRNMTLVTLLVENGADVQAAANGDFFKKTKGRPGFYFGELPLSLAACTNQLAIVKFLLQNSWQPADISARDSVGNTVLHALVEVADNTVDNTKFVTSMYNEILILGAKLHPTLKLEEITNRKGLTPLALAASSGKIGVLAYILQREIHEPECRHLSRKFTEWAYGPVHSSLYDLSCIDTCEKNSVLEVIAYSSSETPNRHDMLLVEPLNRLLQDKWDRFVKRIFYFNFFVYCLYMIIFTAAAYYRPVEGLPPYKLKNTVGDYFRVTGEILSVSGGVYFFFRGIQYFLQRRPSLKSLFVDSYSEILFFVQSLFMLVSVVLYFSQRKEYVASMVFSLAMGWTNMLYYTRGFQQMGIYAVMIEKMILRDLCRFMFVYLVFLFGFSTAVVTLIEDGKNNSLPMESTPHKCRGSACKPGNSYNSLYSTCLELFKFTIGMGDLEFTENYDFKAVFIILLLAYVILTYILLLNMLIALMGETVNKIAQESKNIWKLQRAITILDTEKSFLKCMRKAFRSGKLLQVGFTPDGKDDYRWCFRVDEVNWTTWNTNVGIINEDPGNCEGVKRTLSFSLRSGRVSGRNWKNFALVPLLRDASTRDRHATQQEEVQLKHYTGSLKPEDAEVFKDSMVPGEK
- ASSAY_OVERVIEW: TRPV1 agonist activity by intracellular calcium level (FLIPR method)
- Type: cell-based
- CONDITION: 1 μM; rat dorsal root ganglion primary culture cells; read-out: Value (%) when fluorescence intensity for capsaicin (1 μM) is 100%

MOLECULE	TARGET_OR_TEST_SYSTEM	Emax at 1 µM
COc1cc(CNC(=O)C2CN(C(=O)O[C@@H]3C[C@H](C)CC[C@H]3C(C)C)C2)ccc1O [Example 20]	TRPV1 (Rattus norvegicus)	73%
COc1cc(CNC(=O)C2CCN(C(=O)OCC3CCCCC3)CC2)ccc1O [Example 40]	TRPV1 (Rattus norvegicus)	91%
COc1cc(CNC(=O)C2CN(C(=O)Oc3ccccc3C3CCCC3)C2)ccc1O [Example 46]	TRPV1 (Rattus norvegicus)	68%
COc1cc(CNC(=O)C2CCN(C(=O)O[C@H]3CCC[C@H](C)C3)CC2)ccc1O [Example 10]	TRPV1 (Rattus norvegicus)	92%
CCCC[C@H]1CC[C@@H](OC(=O)N2CC(C(=O)NCc3ccc(O)c(OC)c3)C2)CC1 [Example 22]	TRPV1 (Rattus norvegicus)	80%
C=C(C)[C@@H]1CC[C@@H](C)C[C@H]1OC(=O)N1CC(C(=O)NCc2ccc(O)c(OC)c2)C1 [Example 26]	TRPV1 (Rattus norvegicus)	82%
COc1cc(CNC(=O)C2CCN(C(=O)Oc3cccc(C(C)C)c3)CC2)ccc1O [Example 43]	TRPV1 (Rattus norvegicus)	68%
COc1cc(CNC(=O)C2CCN(C(=O)OC3CCCCCC3)CC2)ccc1O [Example 39]	TRPV1 (Rattus norvegicus)	91%
COc1cc(CNC(=O)[C@@H]2CCN(C(=O)OC3CCC(C)(C)CC3)C2)ccc1O [Example 31]	TRPV1 (Rattus norvegicus)	68%
COc1cc(CNC(=O)C2CN(C(=O)O[C@H]3CC[C@@H](C(C)C)CC3)C2)ccc1O [Example 24]	TRPV1 (Rattus norvegicus)	84%
COc1cc(CNC(=O)C2CCN(C(=O)OC3CCCCC3)CC2)ccc1O [Example 48]	TRPV1 (Rattus norvegicus)	77%
COc1cc(CNC(=O)C2CN(C(=O)Oc3ccccc3C(C)C)C2)ccc1O [Example 45]	TRPV1 (Rattus norvegicus)	72%
CC[C@H]1CC[C@@H](OC(=O)N2CC(C(=O)NCc3ccc(O)c(OC)c3)C2)CC1 [Example 15]	TRPV1 (Rattus norvegicus)	83%
COc1cc(CNC(=O)C2CCN(C(=O)OC3CCC(C)(C)CC3)CC2)ccc1O [Example 8]	TRPV1 (Rattus norvegicus)	96%
COc1cc(CNC(=O)C2CCN(C(=O)Oc3ccccc3C(C)C)CC2)ccc1O [Example 41]	TRPV1 (Rattus norvegicus)	83%
CC[C@H]1CC[C@@H](OC(=O)N2CC[C@@H](C(=O)NCc3ccc(O)c(OC)c3)C2)CC1 [Example 32]	TRPV1 (Rattus norvegicus)	78%
CCCC[C@H]1CC[C@H](OC(=O)N2CC(C(=O)NCc3ccc(O)c(OC)c3)C2)CC1 [Example 23]	TRPV1 (Rattus norvegicus)	77%
CCC1(CC)CCC(OC(=O)N2CC[C@@H](C(=O)NCc3ccc(O)c(OC)c3)C2)CC1 [Example 33]	TRPV1 (Rattus norvegicus)	73%
COc1cc(CNC(=O)[C@H]2CCN(C(=O)O[C@H]3CC[C@@H](C(C)(C)C)CC3)C2)ccc1O [Example 30]	TRPV1 (Rattus norvegicus)	78%
CCC1(CC)CCC(OC(=O)N2CC(C(=O)NCc3ccc(O)c(OC)c3)C2)CC1 [Example 14]	TRPV1 (Rattus norvegicus)	78%
COc1cc(CNC(=O)C2CN(C(=O)O[C@H]3C[C@H](C)CC[C@H]3C(C)C)C2)ccc1O [Example 21]	TRPV1 (Rattus norvegicus)	85%
COc1cc(CNC(=O)C2CCN(C(=O)O[C@H]3CC[C@@H](C(C)(C)C)CC3)CC2)ccc1O [Example 5]	TRPV1 (Rattus norvegicus)	84%
COc1cc(CNC(=O)C2CCN(C(=O)O[C@@H]3C[C@H](C)C[C@H](C)C3)CC2)ccc1O [Example 12]	TRPV1 (Rattus norvegicus)	92%
COc1cc(CNC(=O)C2CCN(C(=O)O[C@@H]3CCC[C@@H](C)C3)CC2)ccc1O [Example 35]	TRPV1 (Rattus norvegicus)	86%
COc1cc(CNC(=O)C2CN(C(=O)O[C@H]3CCC[C@H](C)C3)C2)ccc1O [Example 18]	TRPV1 (Rattus norvegicus)	86%
COc1cc(CNC(=O)C2CCN(C(=O)Oc3ccc(C(C)C)cc3)CC2)ccc1O [Example 44]	TRPV1 (Rattus norvegicus)	83%
CC[C@H]1CCCC[C@H]1OC(=O)N1CCC(C(=O)NCc2ccc(O)c(OC)c2)CC1 (relative stereo) [Example 13]	TRPV1 (Rattus norvegicus)	81%
CC[C@H]1CC[C@@H](OC(=O)N2CC[C@H](C(=O)NCc3ccc(O)c(OC)c3)C2)CC1 [Example 28]	TRPV1 (Rattus norvegicus)	81%
COc1cc(CNC(=O)C2CCN(C(=O)O[C@H]3CC[C@@H](C)CC3)CC2)ccc1O [Example 3]	TRPV1 (Rattus norvegicus)	80%
CCC1(CC)CCC(OC(=O)N2CCC(C(=O)NCc3ccc(O)c(OC)c3)CC2)CC1 [Example 7]	TRPV1 (Rattus norvegicus)	90%
COc1cc(CNC(=O)[C@H]2CCN(C(=O)OC3CCC(C)(C)CC3)C2)ccc1O [Example 27]	TRPV1 (Rattus norvegicus)	86%
COc1cc(CNC(=O)C2CCN(C(=O)O[C@H]3CC[C@H](C(C)(C)C)CC3)CC2)ccc1O [Example 6]	TRPV1 (Rattus norvegicus)	80%

The reported measurements were obtained from patent US8367835B2.
